Taken from the supplement of paper PMC9112550.

System: Escherichia coli TOP10;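 note: peptides expressed intracellularly from a pBAD plasmid library in pooled LB shake-flask culture, induced with 0.3% L-arabinose, DNA abundance read by NGS, three biological replicates, DESeq2 with apeglm shrinkage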
Test: shrunken log2 fold change of peptide-encoding DNA abundance (4.5 h post-induction vs induction); higher = less antimicrobial activity (less host growth inhibition)
Conditions: time post-induction: 4.5 h; library: site-saturation at positions 5, 18, 19, 20

{"columns": ["sequence.entry", "shrunken log2 fold change"],
 "data": [
  ["RRIRMRPPRLPRPRPRPYTGPRP", 0.042],
  ["RRIRWRPPRLPRPRPRPRSTPRP", 0.551],
  ["RRIRRRPPRLPRPRPRPVREPRP", 0.0195],
  ["RRIRYRPPRLPRPRPRPMLHPRP", -0.404],
  ["RRIRTRPPRLPRPRPRPFPEPRP", -0.41],
  ["RRIRPRPPRLPRPRPRPIAWPRP", 0.266],
  ["RRIRWRPPRLPRPRPRPHGKPRP", 0.00196],
  ["RRIRIRPPRLPRPRPRPLKEPRP", -0.568],
  ["RRIRVRPPRLPRPRPRPALDPRP", 0.357],
  ["RRIRFRPPRLPRPRPRPKMMPRP", -0.147],
  ["RRIRNRPPRLPRPRPRPNCIPRP", -0.679],
  ["RRIRQRPPRLPRPRPRPELLPRP", 0.534],
  ["RRIRSRPPRLPRPRPRPEAVPRP", -0.0338],
  ["RRIRPRPPRLPRPRPRPRENPRP", 0.672],
  ["RRIRQRPPRLPRPRPRPSGSPRP", -0.0833]
]}
